Documented inhibition at 1 µM across a set of compounds
Target: Recombinant full-length human EP (Enteropeptidase) (Homo sapiens, UniProt P98073)
Construct: Recombinant full-length human EP (PeproTech, Cat #450-48C); purchased PeproTech 450-48C
Sequence (P98073 whole entry): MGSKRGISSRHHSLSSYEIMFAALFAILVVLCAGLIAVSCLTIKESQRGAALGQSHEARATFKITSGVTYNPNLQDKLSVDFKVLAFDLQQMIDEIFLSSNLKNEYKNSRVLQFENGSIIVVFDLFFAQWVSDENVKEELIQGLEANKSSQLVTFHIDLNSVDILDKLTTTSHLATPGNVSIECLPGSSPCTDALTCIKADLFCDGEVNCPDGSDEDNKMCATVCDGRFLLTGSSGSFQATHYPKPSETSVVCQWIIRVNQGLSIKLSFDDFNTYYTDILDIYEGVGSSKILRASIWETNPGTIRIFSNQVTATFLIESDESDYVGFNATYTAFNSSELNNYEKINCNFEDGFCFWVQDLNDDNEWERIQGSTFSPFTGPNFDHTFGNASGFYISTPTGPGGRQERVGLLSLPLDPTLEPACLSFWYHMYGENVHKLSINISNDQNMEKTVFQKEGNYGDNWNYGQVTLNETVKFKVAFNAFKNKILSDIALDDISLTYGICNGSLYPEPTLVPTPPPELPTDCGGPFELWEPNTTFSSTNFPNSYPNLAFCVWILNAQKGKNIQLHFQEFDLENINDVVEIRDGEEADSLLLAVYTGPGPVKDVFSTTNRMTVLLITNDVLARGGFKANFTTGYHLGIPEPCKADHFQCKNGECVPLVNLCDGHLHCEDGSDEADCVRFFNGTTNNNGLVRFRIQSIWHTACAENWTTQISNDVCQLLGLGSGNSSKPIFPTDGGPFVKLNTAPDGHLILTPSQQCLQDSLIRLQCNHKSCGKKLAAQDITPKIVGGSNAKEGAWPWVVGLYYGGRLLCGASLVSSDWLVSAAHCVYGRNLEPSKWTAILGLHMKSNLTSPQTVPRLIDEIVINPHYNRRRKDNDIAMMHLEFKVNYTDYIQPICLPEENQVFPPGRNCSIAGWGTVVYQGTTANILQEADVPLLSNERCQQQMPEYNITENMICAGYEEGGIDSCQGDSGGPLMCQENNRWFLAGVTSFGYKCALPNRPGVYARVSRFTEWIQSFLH
Assay: In vitro inhibition potencies against Enteropeptidase (EP), fluorescent peptide GDDDDK-naphthylamine substrate
Type: biochemical
Settings: compound 1 μM, 300 μM substrate, 1.25 nM EP
ATTRIBUTE_MEASURED: inhibition at 1 µM (%)

# COMPOUND, ATTRIBUTE_MEASURED, UNIT_ABBREVIATION, QUANTITATIVE_READOUT
measured = [
    ("N=C(N)Nc1ccc(C(=O)Oc2ccc(CC(=O)NC(CC(=O)O)C(=O)O)n3ccnc23)cc1 (centres unmarked)", "inhibition at 1 µM", "%", 100),
    ("N=C(N)Nc1ccc(C(=O)Oc2ccc(CC(=O)NC(CCC(=O)O)(CCC(=O)O)CCC(=O)O)n3ncnc23)cc1", "inhibition at 1 µM", "%", 100),
    ("N=C(N)Nc1ccc(C(=O)Oc2ccc(CCC(=O)O)n3ccnc23)cc1", "inhibition at 1 µM", "%", 95.1),
    ("N=C(NN)c1ccc(C(=O)Oc2ccc(CC(=O)O)n3ncnc23)cc1", "inhibition at 1 µM", "%", 12.2),
    ("CS(=O)(=O)NC(=O)Cc1ccc(OC(=O)c2ccc(NC(=N)N)cc2)c2ncnn12", "inhibition at 1 µM", "%", 100),
    ("N=C(N)Nc1ccc(C(=O)Oc2ccc(CC(=O)O)n3ncnc23)cc1I", "inhibition at 1 µM", "%", 15.8),
    ("N=C(N)Nc1ccc(C(=O)Oc2ccc(CCC(=O)O)n3ncnc23)cc1", "inhibition at 1 µM", "%", 101),
    ("N#Cc1cc(C(=O)Oc2ccc(CC(=O)O)n3ncnc23)ccc1NC(=N)N", "inhibition at 1 µM", "%", -6.3),
    ("C/C(=N\\O)Nc1ccc(C(=O)Oc2ccc(CC(=O)O)n3ncnc23)cc1", "inhibition at 1 µM", "%", -10.1),
    ("C#CCOCC#Cc1cc(NC(=N)N)ccc1C(=O)Oc1ccc(CC(=O)O)n2ncnc12", "inhibition at 1 µM", "%", 99.9),
    ("N=C(N)Nc1ccc(C(=O)Oc2ccc(CC(=O)O)n3ncnc23)cc1", "inhibition at 1 µM", "%", 100),
    ("C#CCOCCOCC#Cc1cc(NC(=N)N)ccc1C(=O)Oc1ccc(CC(=O)O)n2ncnc12", "inhibition at 1 µM", "%", 98.5),
    ("N=C(N)Nc1ncc(C(=O)Oc2ccc(CC(=O)O)n3ccnc23)cn1", "inhibition at 1 µM", "%", 99.4),
    ("CONC(=N)c1ccc(C(=O)Oc2ccc(CC(=O)O)n3ncnc23)cc1", "inhibition at 1 µM", "%", 9.1),
    ("N=C(N)Nc1ccc(C(=O)Oc2ccc(CC(=O)O)n3ncnc23)c(C(F)(F)F)c1", "inhibition at 1 µM", "%", 38.5),
    ("N=C(N)Nc1ccc(C(=O)Oc2ccc(CC(=O)O)n3ncnc23)c(Cl)c1", "inhibition at 1 µM", "%", 100),
    ("N=C1NCCN1c1ccc(C(=O)Oc2ccc(CC(=O)O)n3ncnc23)cc1", "inhibition at 1 µM", "%", 57.9),
]
